From: ChEMBL document CHEMBL1671697

Assay: Cytotoxicity against human HepG2 cells after 22 hrs
Format: cell-based
Conditions: read-out: TC50
Reported CC50 at 22 h by item:
Write it as a number; the unit mM goes unstated.

Illustrative cases are given below, each with its answer.
Compound: CCCCCCCCN(C)CC(P(=O)(O)O)P(=O)(O)O
Unit label: mM
CC50 at 22 h: 1

Compound: CCCCCCCCCCOc1ccc[n+](CC(P(=O)([O-])O)P(=O)(O)O)c1 (centres undefined)
Unit label: mM
CC50 at 22 h: 2

Compound: CCCCCCCCCCN(C)CC(P(=O)(O)O)P(=O)(O)O
Unit label: mM
CC50 at 22 h: 1

Query: Fill blank: measured CC50 at 22 h of the compound O=P(O)(O)C(O)(Cc1cccnc1)P(=O)(O)O is ____.
Result: 13
